- System: HUVEC
- method-description: Radioprotective activity against 5 Gy gamma radiation-mediated cell damage in HUVEC assessed as viable cells at 0.1 uM preincubated for 2 hrs followed by 5 Gy gamma irradiation and measured after 24 hrs by annexin-V-FITC/propidium iodide staining-based flow cytometric method (reference value: 65.8%)
- Type: functional
- test-parameters: Homo sapiens, light or radiation study, read-out: Activity
reported-property: viability at 0.1 µM (%)

INSERT INTO measurements (molecule_smiles, unit_label, number) VALUES
  ('O=C(O)c1ccc(/C=C/S(=O)(=O)Cc2ccc(OC(F)(F)F)cc2)cc1', '%', 83.3),
  ('CC1(C)CC(OC(=O)c2ccc(/C=C/S(=O)(=O)Cc3ccc(OC(F)(F)F)cc3)cc2)CC(C)(C)N1[O]', '%', 84.7),
  ('CC1(C)CC(OC(=O)c2ccc(/C=C/S(=O)(=O)Cc3ccc(F)cc3)cc2)CC(C)(C)N1[O]', '%', 88.8),
  ('O=C(O)c1ccc(/C=C/S(=O)(=O)Cc2ccc(F)cc2)cc1', '%', 90.4),
  ('CC1(C)CC(OC(=O)c2ccc(/C=C/S(=O)(=O)Cc3ccc(Cl)cc3)cc2)CC(C)(C)N1[O]', '%', 90);

----------
- Test system: HUVEC
- method-description: Radioprotective activity against 5 Gy gamma radiation-mediated cell damage in HUVEC assessed as viable cells at 1 uM preincubated for 2 hrs followed by 5 Gy gamma irradiation and measured after 24 hrs by annexin-V-FITC/propidium iodide staining-based flow cytometric method (reference value: 65.8%)
- Assay type: functional
- test-parameters: Homo sapiens, light or radiation study, read-out: Activity
reported-property: viability at 1 µM (%)

INSERT INTO results (molecule_smiles, unit_label, number) VALUES
  ('CC1(C)CC(OC(=O)c2ccc(/C=C/S(=O)(=O)Cc3ccc(F)cc3)cc2)CC(C)(C)N1[O]', '%', 90.8),
  ('CC1(C)CC(OC(=O)c2ccc(/C=C/S(=O)(=O)Cc3ccc(OC(F)(F)F)cc3)cc2)CC(C)(C)N1[O]', '%', 90.3),
  ('CC1(C)CC(OC(=O)c2ccc(/C=C/S(=O)(=O)Cc3ccc(Cl)cc3)cc2)CC(C)(C)N1[O]', '%', 83.3),
  ('O=C(O)c1ccc(/C=C/S(=O)(=O)Cc2ccc(F)cc2)cc1', '%', 85.6),
  ('O=C(O)c1ccc(/C=C/S(=O)(=O)Cc2ccc(OC(F)(F)F)cc2)cc1', '%', 81.9);

----------
- System: HUVEC
- method-description: Radioprotective activity against 5 Gy gamma radiation-mediated cell damage in HUVEC assessed as necrotic cells at 1 uM preincubated for 2 hrs followed by 5 Gy gamma irradiation and measured after 24 hrs by annexin-V-FITC/propidium iodide staining-based flow cytometric method (reference value: 3.5%)
- Type: functional, Homo sapiens
Quick reference for Activity among some molecules
reported-property: Activity (%)

INSERT INTO assay_data (molecule_smiles, reported_property, unit_label, number) VALUES
  ('O=C(O)c1ccc(/C=C/S(=O)(=O)Cc2ccc(OC(F)(F)F)cc2)cc1', 'Activity', '%', 3.4),
  ('O=C(O)c1ccc(/C=C/S(=O)(=O)Cc2ccc(F)cc2)cc1', 'Activity', '%', 1.6),
  ('CC1(C)CC(OC(=O)c2ccc(/C=C/S(=O)(=O)Cc3ccc(F)cc3)cc2)CC(C)(C)N1[O]', 'Activity', '%', 1),
  ('CC1(C)CC(OC(=O)c2ccc(/C=C/S(=O)(=O)Cc3ccc(Cl)cc3)cc2)CC(C)(C)N1[O]', 'Activity', '%', 2.1),
  ('CC1(C)CC(OC(=O)c2ccc(/C=C/S(=O)(=O)Cc3ccc(OC(F)(F)F)cc3)cc2)CC(C)(C)N1[O]', 'Activity', '%', 1.7);
